Listed here are binders together with their documented IC50, Myostatin SMAD RGA.
Target: ActRIIA and ActRIIB (on TGFB/SMAD SBE Reporter HEK293 cells) (human)
Sequence (chain, as listed by the source, chain 1 of 2): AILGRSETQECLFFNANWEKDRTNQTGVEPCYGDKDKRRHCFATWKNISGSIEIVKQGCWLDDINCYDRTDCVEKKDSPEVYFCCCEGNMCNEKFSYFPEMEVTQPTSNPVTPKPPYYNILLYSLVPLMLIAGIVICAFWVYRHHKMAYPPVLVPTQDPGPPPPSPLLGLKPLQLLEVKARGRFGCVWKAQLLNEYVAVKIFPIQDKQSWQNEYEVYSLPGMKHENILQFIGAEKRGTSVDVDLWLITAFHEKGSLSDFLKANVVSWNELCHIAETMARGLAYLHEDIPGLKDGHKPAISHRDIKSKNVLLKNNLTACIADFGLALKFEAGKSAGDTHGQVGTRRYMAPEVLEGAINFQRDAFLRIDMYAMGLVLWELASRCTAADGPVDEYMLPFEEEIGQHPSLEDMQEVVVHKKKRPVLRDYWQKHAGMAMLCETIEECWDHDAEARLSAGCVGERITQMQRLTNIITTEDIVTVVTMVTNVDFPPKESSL
Sequence (chain, as listed by the source, chain 2 of 2): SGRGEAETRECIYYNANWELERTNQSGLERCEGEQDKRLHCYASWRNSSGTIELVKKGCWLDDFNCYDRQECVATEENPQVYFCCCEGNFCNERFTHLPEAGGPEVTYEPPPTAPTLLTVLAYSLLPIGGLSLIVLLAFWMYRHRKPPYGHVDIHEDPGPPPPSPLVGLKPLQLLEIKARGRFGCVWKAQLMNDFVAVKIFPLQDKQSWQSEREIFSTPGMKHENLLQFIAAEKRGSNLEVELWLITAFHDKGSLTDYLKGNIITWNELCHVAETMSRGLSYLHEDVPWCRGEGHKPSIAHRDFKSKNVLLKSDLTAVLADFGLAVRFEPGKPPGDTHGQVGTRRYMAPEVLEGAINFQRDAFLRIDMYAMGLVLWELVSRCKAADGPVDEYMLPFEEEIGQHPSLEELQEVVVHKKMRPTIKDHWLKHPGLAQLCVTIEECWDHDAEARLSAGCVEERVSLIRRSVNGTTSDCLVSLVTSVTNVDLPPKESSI
Assay: cell-based or functional assay
Respond with the bare value in nM.

{"Binder": "Antibody Peitscheschdegga (antibody, V domains shown) VH: QVQLVQSGAEVKKPGSSVKVSCKASGYKFTSSYINWVRQAPGQGLEWMGTINAVSGSTSYAQKFQGRVTITADTSTSTAYMELSSLRSEDTAVYYCARGGWFDYWGQGTLVTVSS VL: QSALTQPRSVSGSPGQSVTISCTGTSSDVGSKNYVNWYQQHPGKAPKLMIHGVSKRESGVPDRFSGSKSGNTASLTISGLQAEDEADYYCGTFAGGKYYGVFGGGTKLTVL", "IC50, Myostatin SMAD RGA / nM": 2.84}
{"Binder": "Antibody Krapfa (antibody, V domains shown) VH: QVQLVQSGAEVKKPGSSVKVSCKASGHKFTSSYINWVRQAPGQGLEWMGTINAVSGSTSYAQKFQGRVTITADTSTSTAYMELSSLRSEDTAVYYCARGGWFDYWGQGTLVTVSS VL: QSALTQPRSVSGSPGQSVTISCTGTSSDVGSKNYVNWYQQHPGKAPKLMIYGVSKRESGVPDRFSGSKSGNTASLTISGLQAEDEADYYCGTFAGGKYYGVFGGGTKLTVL", "IC50, Myostatin SMAD RGA / nM": 0.0497}

# return recorded IC50, Myostatin SMAD RGA for input Antibody Nonnafürzla (antibody, V domains shown) VH: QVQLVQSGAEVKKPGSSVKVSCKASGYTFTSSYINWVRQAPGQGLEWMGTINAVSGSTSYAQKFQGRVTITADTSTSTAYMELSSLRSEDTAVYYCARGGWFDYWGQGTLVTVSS VL: QSALTQPRSVSGSPGQSVTISCTGTSSDVGSYNYVNWYQQHPGKAPKLMIYGVSKRDSGVPDRFSGSKSGNTASLTISGLQAEDEADYYCGTFAGGKYYGVFGGGTKLTVL 1.32

# return recorded IC50, Myostatin SMAD RGA for input Antibody Oierspätzla (antibody, V domains shown) VH: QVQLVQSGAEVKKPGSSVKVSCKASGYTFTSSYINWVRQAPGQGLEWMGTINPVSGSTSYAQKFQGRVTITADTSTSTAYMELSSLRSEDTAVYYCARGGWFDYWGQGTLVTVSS VL: QSALTQPRSVSGSPGQSVTISCTGTSSDVGSYNYVNWYQQHPGKAPKLMIYGVSKRESGVPDRFSGSKSGNTASLTISGLQAEDEADYYCGTFAGGAYYGVFGGGTKLTVL 0.96

# return recorded IC50, Myostatin SMAD RGA for input Antibody Mauldascha (antibody, V domains shown) VH: QVQLVQSGAEVKKPGSSVKVSCKASGYTFTSSYINWVRQAPGQGLEWMGTINAVSGSTSYAQKFQGRVTITADESTSTAYMELSSLRSEDTAVYYCARGGWFDYWGQGTLVTVSS VL: QSALTQPRSVSGSPGQSVTISCTGTSSDVGSYNYVNWYQQHPGKAPKLMIYGVSKRESGVPDRFSGSKSGNTASLTISGLQAEDEADYYCGTFAGGKYYGVFGGGTKLTVL 1.42
